methodSummary: method code SF-AS, from Ganga, L. X. J. S., & Zun-Yaob, L. H. W. (2009). Determination of lgKow and QSPR Study on Some Fluorobenzene Derivatives. Jiegou Huaxue, 28(10).
measuredMetric: logP
Lab note: jot down the number only; don't add units.

## Input logP lookup needed for Oc1ccc(F)cc1F , thanks.
## Output 1.9

## Input logP lookup needed for Fc1ccc(F)c(F)c1 , thanks.
## Output 2.34

## Input logP lookup needed for Fc1ccccc1F , thanks.
## Output 2.1

## Input logP lookup needed for Fc1cc(F)c(F)cc1F , thanks.
## Output 2.44

----------
measuredMetric: logP
Lab note: jot down the number only; don't add units.

## Input logP lookup needed for Cn1ccc2cc(-c3nc4ccc(F)nc4o3)cnc21 , thanks.
## Output 2.91

----------
methodSummary: method code SF-HPLC, from DOI: 10.1016/j.bmc.2015.09.009, PMID: 26385444
Kindly supply the reported logP values for the records listed here.
Lab note: jot down the number only; don't add units.

## Input logP lookup needed for CC1=C(C(=O)Nc2nc3ccccc3s2)C(c2ccc(F)cc2)NC(=S)N1 (stereo not drawn) , thanks.
## Output 2.18

## Input logP lookup needed for CC1=C(C(=O)Nc2nc3ccccc3s2)C(c2ccc(N(C)C)cc2)NC(=S)N1 (stereo not drawn) , thanks.
## Output 2.22

## Input logP lookup needed for CC1=C(C(=O)Nc2nc3ccccc3s2)C(c2ccc(C(F)(F)F)cc2)NC(=S)N1 (stereo not drawn) , thanks.
## Output 2.92

----------
methodSummary: method code SF-RC, from DOI: 10.1002/jps.2600840617, PMID: 7562417
measuredMetric: logP
Lab note: jot down the number only; don't add units.

## Input logP lookup needed for Nc1ccn(C[C@@H](CO)OCP(=O)(O)O)c(=O)n1 , thanks.
## Output -3.17

----------
Kindly supply the reported logD values for the records listed here.
methodSummary: method code SF-TN, from DOI: 10.2116/analsci.13.897
condition: pH 2.0
Lab note: jot down the number only; don't add units.

## Input logD lookup needed for CCCC=CC(=O)O , thanks.
## Output 1.69

## Input logD lookup needed for O=C(O)C1CC=CCC1 (configuration not stated) , thanks.
## Output 1.69

----------
methodSummary: method code SF-AS, from PMID: 7170648
condition: pH 7.4
measuredMetric: logD
Lab note: jot down the number only; don't add units.

## Input logD lookup needed for CCN(CC)C(=O)N1CCN(Cc2cc(Nc3ccnc4cc(Cl)ccc34)ccc2O)CC1 , thanks.
## Output 3.95

----------
Kindly supply the reported logP values for the records listed here.

## Input logP lookup needed for Cc1cc(C(=O)N2Cc3ccc(C(=O)NCCF)n3Cc3ccccc32)ccc1-c1ccccc1C(F)(F)F , thanks.
## Output 4.18

## Input logP lookup needed for Cc1cc(C(=O)N2Cc3ccc(C(=O)N4CCOCC4)n3Cc3ccccc32)ccc1-c1ccccc1CCF , thanks.
## Output 4.08

## Input logP lookup needed for Cc1cc(C(=O)N2Cc3ccc(C(=O)N(CCO)CCO)n3Cc3ccccc32)ccc1-c1cc(F)ccc1C(F)(F)F , thanks.
## Output 3.31

## Input logP lookup needed for Cc1cc(C(=O)N2Cc3ccc(C(=O)N(CCO)CCO)n3Cc3ccccc32)ccc1-c1ccccc1C(F)(F)F , thanks.
## Output 3.21

----------
methodSummary: method code SF, from DOI: 10.1002/jps.2600641111, PMID: 1195110
condition: pH 7.4
measuredMetric: logD
Lab note: jot down the number only; don't add units.

## Input logD lookup needed for CC(=O)NCCn1c([N+](=O)[O-])cnc1C , thanks.
## Output -0.47

----------
measuredMetric: logP
Lab note: jot down the number only; don't add units.

## Input logP lookup needed for CNC(=O)Oc1cc(C)c(C)cc1Cl , thanks.
## Output 2.3

----------
Kindly supply the reported logP values for the records listed here.
Lab note: jot down the number only; don't add units.

## Input logP lookup needed for Clc1ccncc1 , thanks.
## Output 1.37

## Input logP lookup needed for O=Cc1ccncc1 , thanks.
## Output 0.23

----------
methodSummary: method code SF-CR+DM, from DOI: 10.1021/ja01573a017
condition: pH 6.5
Kindly supply the reported logD values for the records listed here.

## Input logD lookup needed for Oc1ccc(Cl)c2ccccc12 , thanks.
## Output 4.1

## Input logD lookup needed for Cc1ccc(NC(=O)c2ccccc2)c(O)c1 , thanks.
## Output 3.08

## Input logD lookup needed for Cc1ccc(NC(=O)c2ccco2)c(O)c1 , thanks.
## Output 2.84

----------
Exam item: assign true (1) to entries whose logP is below 4 and false (0) to entries at or above 4. Note that a value of exactly 4 receives false (0).

## Input Answer whether the molecule OC1(c2ccc(Cl)cc2)CCN(CCCSc2ccc(F)cc2)CC1 has logP strictly less than 4
## Output false (0)

## Input Answer whether the molecule O=C(CCN1CCC(O)(c2ccc(Cl)cc2)CC1)c1ccc(F)cc1 has logP strictly less than 4
## Output true (1)

## Input Answer whether the molecule CC(C)c1ccc(C(=O)CCCN2CCC(O)(c3ccc(Cl)cc3)CC2)cc1 has logP strictly less than 4
## Output false (0)

## Input Answer whether the molecule OC(CCCN1CCC(O)(c2ccc(Cl)cc2)CC1)c1ccc(F)cc1 (stereo unspecified) has logP strictly less than 4
## Output true (1)

## Input Answer whether the molecule O=C(CCCCCN1CCC(O)(c2ccc(Cl)cc2)CC1)c1ccc(F)cc1 has logP strictly less than 4
## Output false (0)

## Input Answer whether the molecule O=C(CCCCN1CCC(O)(c2ccc(Cl)cc2)CC1)c1ccc(F)cc1 has logP strictly less than 4
## Output true (1)

----------
measuredMetric: logP
Lab note: jot down the number only; don't add units.

## Input logP lookup needed for O=C(O)c1ccccc1F , thanks.
## Output 1.63

----------
methodSummary: method code SF-HPLC, from DOI: 10.1248/bpb.16.154, PMID: 8364451
measuredMetric: logP
Lab note: jot down the number only; don't add units.

## Input logP lookup needed for O=C(O)CNC(=O)c1ccccc1O , thanks.
## Output 0.95

----------
Kindly supply the reported logP values for the records listed here.
methodSummary: method code SF, from DOI: 10.1002/jps.2600830714, PMID: 7965679

## Input logP lookup needed for COC1OC(CO)C(O)C(O)C1NC(=O)C(C)NC(=O)N(CCCl)N=O (stereo unspecified) , thanks.
## Output -0.76

## Input logP lookup needed for CC(=O)OC[C@H]1O[C@@H](OC(C)=O)[C@H](NC(=O)CNC(=O)N(CCCl)N=O)[C@@H](OC(C)=O)[C@@H]1OC(C)=O , thanks.
## Output 0.61

## Input logP lookup needed for NC(=O)CNC(=O)N(CCCl)N=O , thanks.
## Output -0.3

## Input logP lookup needed for CC(NC(=O)N(CCCl)N=O)C(=O)NC1C(O)OC(CO)C(O)C1O (stereo unspecified) , thanks.
## Output -1.02

## Input logP lookup needed for CO[C@H]1O[C@H](CO)[C@@H](O)[C@H](O)[C@H]1NC(=O)CNC(=O)N(CCCl)N=O , thanks.
## Output -1.04

## Input logP lookup needed for O=NN(CCCl)C(=O)NCC(=O)NC1C(O)OC(CO)C(O)C1O (stereo unspecified) , thanks.
## Output -1.1

----------
methodSummary: method code SF-AS, from DOI: 10.1111/j.1440-1681.1976.tb00621.x, PMID: 10116
Kindly supply the reported logP values for the records listed here.
Lab note: jot down the number only; don't add units.

## Input logP lookup needed for CCC(Cl)(CC)C(=O)NC(N)=O , thanks.
## Output 1.4

## Input logP lookup needed for CCC(CC)(OC)C(=O)NC(N)=O , thanks.
## Output 0.96

----------
measuredMetric: logP
Lab note: jot down the number only; don't add units.

## Input logP lookup needed for CCCCCCCCn1sc(Cl)c(Cl)c1=O , thanks.
## Output 4.9

----------
methodSummary: method code SF-GLC, from DOI: 10.1007/bf00224496
Kindly supply the reported logP values for the records listed here.
Lab note: jot down the number only; don't add units.

## Input logP lookup needed for C=CC(=C)CCC=C(C)C , thanks.
## Output 4.5

## Input logP lookup needed for C=C(C)C1CC=C(C)CC1 (configuration not stated) , thanks.
## Output 4.4

----------
methodSummary: method code SF-AS, from DOI: 10.1007/bf02877675, PMID: 411721
Kindly return YES if reported logP is no lower than 3; return NO if it is lower.

## Input Answer whether logP of N#CC(C#N)=NNc1ccccc1Cl is greater than or equal to 3.
## Output NO

## Input Answer whether logP of N#CC(C#N)=NNc1ccc(Br)cc1 is greater than or equal to 3.
## Output YES

## Input Answer whether logP of CC(=O)c1ccc(NN=C(C#N)C#N)cc1 is greater than or equal to 3.
## Output NO

## Input Answer whether logP of N#CC(C#N)=NNc1ccc([N+](=O)[O-])cc1 is greater than or equal to 3.
## Output NO

## Input Answer whether logP of N#CC(C#N)=NNc1ccc(Cl)c(Cl)c1 is greater than or equal to 3.
## Output YES
